- TEST: Role of blood flow on percutaneous absorption (iontophoresis of phenylephrine), rat/rat flap
- Format: in vivo
- RECORDED CONDITIONS: rat, in vivo, topical or ocular, no alteration in the microcirculation, two weeks later; read-out: time of peak levels in flap blood (converted)
QUANTITY MEASURED: Tmax

Give the reported value of Tmax for this record: O=C(O)c1ccccc1 [benzoic acid]
~10 min

The values you see were collected from patent US4677968A.
